test_target: T1, NLpoly 5P
T1 chain: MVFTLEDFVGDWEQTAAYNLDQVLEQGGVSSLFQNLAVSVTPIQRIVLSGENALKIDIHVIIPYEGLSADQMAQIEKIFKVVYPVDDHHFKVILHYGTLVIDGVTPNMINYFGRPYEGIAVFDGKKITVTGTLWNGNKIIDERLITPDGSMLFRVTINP
test_name: luminescence complementation
experimental_context: chains peptide; modification not given
This listing pairs binders with measured Kd.
API: value field is a number in µM; no unit string.

[[record]]
binder = "SGWRLFKKISN [NLpep81]"
reported_value = 0.111


Moving on to another binder below.
// lookup Kd for GWRLFKKISN [NLpep82] 0.215

meta.source: patent US20200292534A1
